System: HLA-A*26:01
Test method notes: IEDB peptide-MHC binding, purified MHC/competitive/radioactivity; filed as Kd, often an IC50 or EC50 that approximates it; bounds were set here for any values at or beyond the usual limits of such assays
Reported conditions: source organism: Dengue virus 4 Philippines/H241/1956
Kd by entry:
Be sure to follow the number with its unit.

Previously resolved entries follow.
INSERT INTO assay_data (monomer_sequence, system, reported_measurement) VALUES
  ('ETALMVIGM', 'HLA-A*26:01', '308 nM'),
  ('ETFSMGLLCL', 'HLA-A*26:01', '289 nM'),
  ('HTAITQVRNL', 'HLA-A*26:01', '2270 nM');

// sample `AVFKMSPGY` , its Kd was 1920 nM
